assay_target: Melanocortin receptor 3 (Homo sapiens)
Sequence (P41968 whole entry): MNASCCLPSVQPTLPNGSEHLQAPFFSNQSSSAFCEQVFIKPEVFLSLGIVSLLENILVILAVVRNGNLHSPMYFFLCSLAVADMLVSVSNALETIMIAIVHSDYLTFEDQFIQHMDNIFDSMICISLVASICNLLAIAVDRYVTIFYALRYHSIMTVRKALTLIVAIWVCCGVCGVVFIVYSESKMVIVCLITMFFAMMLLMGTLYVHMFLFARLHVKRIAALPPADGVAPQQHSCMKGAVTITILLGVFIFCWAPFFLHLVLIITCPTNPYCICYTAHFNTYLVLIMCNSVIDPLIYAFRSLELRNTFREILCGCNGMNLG
assay_comment: Displacement of [125I]NDP-MSH from human recombinant MC3 receptor expressed in Sf9 cells
measured_parameter: Ki (µM)

Example compounds with recorded Ki:
Looking up "NCCN(C(=O)COc1ccc2ccccc2c1)C1CCC2(CCCCC2)CC1" , I see its Ki listed as 2.1

Given item "N=C(N)NCCN(Cc1ccc2ccccc2c1)C(=O)CCc1c[nH]c2ccccc12" , the value recorded as its Ki is 65

Entry under test: "NCCCCCCCN(Cc1ccccc1)C(=O)CCCc1c[nH]c2ccccc12" . Its Ki was 28

1: NC(N)=NCCCN(Cc1ccc2ccccc2c1)C(=O)CCCc1c[nH]c2ccccc12
2: COc1cc(Br)c(/C=C/CN(C(=O)CCCc2c(Cc3ccc(O)cc3)[nH]c3ccccc23)C2CCC(CC3CCC(N)CC3)CC2)cc1OC (centres undefined)
3: COc1cc(O)ccc1/C=C/CN(C(=O)CCCc1c[nH]c2ccccc12)C1CCC(CC2CCC(N)CC2)CC1 (stereo in doubt; form 1)
# desc sort on Ki across 3 compounds Submit the labels in the order that the ranking request calls for. 2, 3, 1

a: COc1cc(Br)c(/C=C/CN(C(=O)CCCc2c[nH]c3ccccc23)C2CCC(CC3CCC(N)CC3)CC2)cc1OC (centres undefined)
b: NCCN(Cc1ccc2ccccc2c1)C(=O)Cc1c[nH]c2ccccc12
Response body: label of entry with the larger Ki; valid values a , b . Which one? Tell me its label. b
(b: 68 µM, a: 14 µM)

A: NC1CCC(CC2CCC(N(Cc3ccccc3)C(=O)CCCc3c[nH]c4ccccc34)CC2)CC1 (stereo in doubt)
B: CCN(CC)c1ccc(CN(CCCCCN)C(=O)CCCc2c[nH]c3ccccc23)cc1
Higher Ki between A and B ? Lab note: record the label of whichever item you select. B

* * *

assay_target: Melanocortin receptor 5 (Homo sapiens)
assay_comment: Displacement of [125I]NDP-MSH from human recombinant MC5 receptor expressed in Sf9 cells
measured_parameter: Ki (µM)

// sample "NCCCN(C/C=C/c1ccccc1)C(=O)Cc1ccc2ccccc2c1" , its Ki was 10

Memo: NC1CCC(CC2CCC(N(C/C=C/c3ccccc3)C(=O)CCCc3c[nH]c4ccccc34)CC2)CC1 (centres undefined) , reported Ki: 7.7

1: C=C(Br)CN(C(=O)CCCc1c[nH]c2ccccc12)C1CCC(CC2CCC(N)CC2)CC1 (stereo in doubt; form 4)
2: C/C(=C\c1ccccc1)CN(CCCN)C(=O)C(=O)c1c[nH]c2ccccc12
3: NC1CCCC(NC(=O)NC2CCCC(N(Cc3ccccc3)C(=O)CCCc3c(Cc4ccc(O)cc4)[nH]c4ccccc34)C2)C1 (centres undefined)
4: NCc1ccc(CN(C/C=C/c2ccccc2)C(=O)CCCc2c[nH]c3ccccc23)cc1
Sort the 4 compounds by Ki; largest first, smallest last. As an answer, provide the labels arranged in the order called for. 2, 3, 4, 1
(2: 58 µM, 3: 23 µM, 4: 9.7 µM, 1: 5.5 µM)

a: N=C(N)NCCCCN(Cc1ccc2ccccc2c1)C(=O)CCCc1c[nH]c2ccccc12
b: NCCCN(C/C(Cl)=C/c1ccccc1)C(=O)C(=O)c1c[nH]c2ccccc12
Just curious, which one has the larger Ki reading, a or b ? # answer = label of selected item a

* * *

assay_target: Melanocortin receptor 5 (Homo sapiens, UniProt P33032)
Sequence (P33032 whole entry): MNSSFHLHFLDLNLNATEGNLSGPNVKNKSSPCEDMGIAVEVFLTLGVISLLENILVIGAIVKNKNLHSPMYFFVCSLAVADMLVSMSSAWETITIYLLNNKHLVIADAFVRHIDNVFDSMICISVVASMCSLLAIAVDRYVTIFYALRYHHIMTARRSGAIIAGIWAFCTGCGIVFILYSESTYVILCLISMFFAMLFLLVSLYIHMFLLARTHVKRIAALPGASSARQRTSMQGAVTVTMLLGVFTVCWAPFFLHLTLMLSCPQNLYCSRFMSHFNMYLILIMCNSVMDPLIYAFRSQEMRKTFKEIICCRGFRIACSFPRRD
assay_comment: Displacement of [125I]NDP-MSH from human recombinant MC5 receptor expressed in Sf9 cells
measured_parameter: Ki (µM)

Answered cases to consult:
For record COc1cc(Br)c(/C=C/CN(C(=O)CCCc2c(Cc3ccc(O)cc3)[nH]c3ccccc23)C2CCC(CC3CCC(N)CC3)CC2)cc1OC (stereo not drawn) the listed Ki is 18

get_value(item= NC1CCCC(N(C/C(Cl)=C/c2ccccc2)C(=O)CCCc2c[nH]c3ccccc23)C1 (stereo not drawn) , readout=Ki) returns 10

Memo: "NCCN(C(=O)[C@H](N)Cc1ccc(Cl)cc1)C1CCC2(CCCCC2)CC1" , reported Ki: 3.2

Record summary for COc1ccc(CN(C(=O)CCCc2c[nH]c3ccccc23)C2CCC(CC3CCC(N)CC3)CC2)cc1OC (stereo not drawn) : reported Ki = 8.3

COc1cc(Cl)c(CN(C(=O)CCCc2c[nH]c3ccccc23)C2CCC(CC3CCC(N)CC3)CC2)cc1OC (stereo in doubt; form 1) has a reported Ki of 4.3

P: NCCCCCN(Cc1ccccc1)C(=O)[C@H](N)Cc1c[nH]c2ccccc12
Q: COc1ccc2c(c1)c(CC(=O)N(CCCCN)C/C(C)=C/c1ccccc1)c(C)n2C(=O)c1ccc(Cl)cc1
R: CC(C)N(CCCCN)C(=O)c1c[nH]c2ccccc12
Exam item: list the entries in increasing order of Ki. List the labels, following the order given in the request. Q, P, R
(Q: 56 µM, P: 159 µM, R: 279 µM)
